experiment: blood morphology, blood biochemistry and organ weights of mice with 67NR tumor; conditions: Table S2, mice with 67NR tumor, 50 mg/kg
// values below are reported MCH
Endpoint Label: MCH

[
  {
    "Compound": "NS(=O)(=O)Oc1ccc(-c2cn(-c3ccc(F)c(F)c3F)nn2)cc1 [5e]",
    "Result": "18,2±0,4 pg"
  },
  {
    "Compound": "NS(=O)(=O)Oc1ccc(-c2cn(-c3cc(Cl)cc(Cl)c3)nn2)cc1 [4b]",
    "Result": "17,6±0,5 pg"
  },
  {
    "Compound": "NS(=O)(=O)Oc1ccc(-c2cn(-c3cc(F)cc(F)c3)nn2)cc1 [5l]",
    "Result": "17,8±0,3 pg"
  },
  {
    "Compound": "NS(=O)(=O)Oc1ccc(-c2cn(-c3cccc(F)c3)nn2)cc1 [5g]",
    "Result": "18,3±0,9 pg"
  },
  {
    "Compound": "NS(=O)(=O)Oc1ccc(-c2cn(-c3cccc(Cl)c3)nn2)cc1 [4a]",
    "Result": "17,7±0,5 pg"
  }
]

====

target: STS in MCF-7 cells (Homo sapiens, UniProt P08842); construct: The radioisotope cellular assay was performed using the MCF-7 cell line; endogenous in cells; host or cells: MCF-7; assay: radioisotope cellular assay with [3H]E1S in MCF-7 cells; assay type: cell-based; settings: MCF7, 20 h, MCF-7 cells; 100 nM inhibitor; substrate [3H]E1S, 3 nM; triplicate; read-out: residual STS activity [%] 100 nM
Sequence (P08842 22-583): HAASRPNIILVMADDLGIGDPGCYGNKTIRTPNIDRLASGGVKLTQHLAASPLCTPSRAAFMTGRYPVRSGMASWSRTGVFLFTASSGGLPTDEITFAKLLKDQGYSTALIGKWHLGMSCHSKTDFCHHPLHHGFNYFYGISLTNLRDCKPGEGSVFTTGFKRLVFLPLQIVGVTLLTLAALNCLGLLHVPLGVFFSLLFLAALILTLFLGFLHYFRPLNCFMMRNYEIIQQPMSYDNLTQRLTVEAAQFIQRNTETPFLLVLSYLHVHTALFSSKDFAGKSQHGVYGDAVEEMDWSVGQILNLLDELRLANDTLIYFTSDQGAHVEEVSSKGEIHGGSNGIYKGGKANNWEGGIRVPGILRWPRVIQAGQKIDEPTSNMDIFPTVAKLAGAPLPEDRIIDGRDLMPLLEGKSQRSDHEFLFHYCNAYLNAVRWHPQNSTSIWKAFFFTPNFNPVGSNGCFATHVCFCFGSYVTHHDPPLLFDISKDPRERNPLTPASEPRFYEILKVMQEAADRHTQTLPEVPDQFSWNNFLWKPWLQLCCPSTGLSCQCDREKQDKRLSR
Returns: string. Value is 1 (yes) if measured remaining activity at 0.1 µM is below 10%, and 0 (no) if it is greater than or equal to it.

[
  {
    "Molecule": "NS(=O)(=O)Oc1ccc(-c2cn(-c3cccc(Br)c3)nn2)cc1 [4c]",
    "Measured Target": "STS in MCF-7 cells (Homo sapiens, UniProt P08842)",
    "Assigned Class": "1 (yes)"
  },
  {
    "Molecule": "NS(=O)(=O)Oc1ccc(-c2cn(-c3cccc(I)c3)nn2)cc1 [4d]",
    "Measured Target": "STS in MCF-7 cells (Homo sapiens, UniProt P08842)",
    "Assigned Class": "1 (yes)"
  },
  {
    "Molecule": "NS(=O)(=O)Oc1ccc(-c2cn(-c3ccccc3C(F)(F)F)nn2)cc1 [5c]",
    "Measured Target": "STS in MCF-7 cells (Homo sapiens, UniProt P08842)",
    "Assigned Class": "1 (yes)"
  },
  {
    "Molecule": "NS(=O)(=O)Oc1ccc(-c2cn(-c3cc(I)cc(I)c3)nn2)cc1 [4m]",
    "Measured Target": "STS in MCF-7 cells (Homo sapiens, UniProt P08842)",
    "Assigned Class": "0 (no)"
  },
  {
    "Molecule": "NS(=O)(=O)Oc1ccc(-c2cn(-c3cc(C(F)(F)F)cc(C(F)(F)F)c3)nn2)cc1 [5d]",
    "Measured Target": "STS in MCF-7 cells (Homo sapiens, UniProt P08842)",
    "Assigned Class": "0 (no)"
  }
]

====

Reported PLT by item:
type: in vivo; conditions: Table S1, MTD study, 50 mg/kg

[
  {
    "Molecule": "NS(=O)(=O)Oc1ccc(-c2cn(-c3cc(Cl)cc(Cl)c3)nn2)cc1 [4b]",
    "PLT": "533±34 10x3/uL"
  },
  {
    "Molecule": "NS(=O)(=O)Oc1ccc(-c2cn(-c3cccc(Cl)c3)nn2)cc1 [4a]",
    "PLT": "518±49 10x3/uL"
  },
  {
    "Molecule": "NS(=O)(=O)Oc1ccc(-c2cn(-c3cccc(F)c3)nn2)cc1 [5g]",
    "PLT": "522±33 10x3/uL"
  },
  {
    "Molecule": "NS(=O)(=O)Oc1ccc(-c2cn(-c3ccc(F)c(F)c3F)nn2)cc1 [5e]",
    "PLT": "511±30 10x3/uL"
  },
  {
    "Molecule": "NS(=O)(=O)Oc1ccc(-c2cn(-c3cc(F)cc(F)c3)nn2)cc1 [5l]",
    "PLT": "596±64 10x3/uL"
  }
]
